METHOD NOTES: yeast display, Sf9 membrane polyspecificity reagent, FACS + sequencing; frameworks hold sequencing errors
EXPERIMENTAL READOUT: polyreactivity (PSR sort gate)

Answered cases to consult:
[[record]]
seq_string = "QVQLVESGGGLVQEGGSLRLSCAASGFIFTPNTMGWYRQAPGKERELVAAITTNGGRTYYADSVKGRFTISRDNAKNTVYLQMNSLKSEDTAVYYCAARYVSSFGLHAQVWSYYYCGQGTQVTVSS"
experimental_readout = "polyreactivity (PSR sort gate)"
experimental_value = "high polyreactivity"

[[record]]
seq_string = "QVQLVESGGGLVQAGGSLRLSCAASGRIFLHYAMGWYRQAPGKERELVAAISRSGGSTYYADSVKGRFTISRDNAKNTVYLQMNSLKPEDTAVYYCAAAYPFKTTEGYFYWGQGTQVTVSS"
experimental_readout = "polyreactivity (PSR sort gate)"
experimental_value = "high polyreactivity"

[[record]]
seq_string = "QVQLVESGGGLVQAGGSLRLSCAASGIISSVYAMGWYRQAPGKERELVAAITGSGGNTYYADSVKGRFTISRDNAKNTVSLQMNSLKPEDTAVYYCATDDAIISYELVYQYDHWGQGTQVTVSS"
experimental_readout = "polyreactivity (PSR sort gate)"
experimental_value = "low polyreactivity"

[[record]]
seq_string = "QVQLVESGGGLVQAGGSLSLSCAASGSLFRPNAMGWYRQAPGKERELVAAITWSGDSTYYADSVKGRFTISRDNAKNTVYLQMNSLKPEATAVYYCAADFTYQGSSANDYWGQGTQVTVSS"
experimental_readout = "polyreactivity (PSR sort gate)"
experimental_value = "low polyreactivity"

[[record]]
seq_string = "QVQLVESGKGLVQAGGSLRLSCAASGITITIYAMGWYRNAPGKERELVAAITWRGGRTYYADSVKGRFTISRDNAKNTVYLQMNSLKPEDTAVYYCNALFGSYPYYWFEYWGHGTQVTVSS"
experimental_readout = "polyreactivity (PSR sort gate)"
experimental_value = "high polyreactivity"


// polyreactivity (PSR sort gate) lookup, key: QVQLVESGGGLVQAGGSLRLSCAASGFIFYSYGMGWYRQAPGKERELVASITSSGTRTYYADSVKGRFTISRDNAKHTVYLQMNSLKPEDTAVYYCAASRFYYGIAYYRYDYWGQGTHVTVSS
high polyreactivity

// polyreactivity (PSR sort gate) lookup, key: QVQLVQSGGGLVQAGGSLRVSCAPSGRIYAMGWSRQAPGKERELVARITKSGTSTYYADSVKGRFTISRDNAKNTVYLQMNSMKPEDTAVYYCATATFYRSVLYGYWGQGTQVTVSS
high polyreactivity

// polyreactivity (PSR sort gate) lookup, key: QVQIVESGGGLVQAGGSLRLSCAASGYIFYPYTMGWYRQAPVKERQLVAAITWSGSTYYADSVKGRFTISRDNAKNTVYLQMNSLKPEDTAVYYCARESDWWREFPYDYWGHGTQVTVSS
low polyreactivity

// polyreactivity (PSR sort gate) lookup, key: QVQLVESGGGLVQAGGSLRLSCAASGRTFARNAMGRYRQAPVKERELVAVISKGGSRTYYADSVKGRFTISRDNEKNTVYLQMNSLKPEDTAVYYCAARHYVTRDESYDYWGQVTQVTVSS
high polyreactivity

---

METHOD NOTES: yeast display, Sf9 membrane polyspecificity reagent, FACS + sequencing; frameworks hold sequencing errors
EXPERIMENTAL READOUT: polyreactivity (PSR sort gate)

[[record]]
seq_string = "QVQLVESGGGLVQAGGILRLSCAASGFIFKSYAMGWYRQAPGKERELVAGITRRGGSTYYADSVKGRFTISRDNAKNTVYLQMNILKPEDTAVYYCNAGRKTADYDFLGQGTQVTVSS"
experimental_readout = "polyreactivity (PSR sort gate)"
experimental_value = "high polyreactivity"

[[record]]
seq_string = "QVQLLESGGGLFQAGGSLRLSCAASGYTFSRNAMGWYRTAPGKERELVAANTGSGGSTYYADSVKGRFTISRDNAQNTVYYQMNSLKPEDTAVYYCATEVKRGYVGFDYWGQGTQVTVSS"
experimental_readout = "polyreactivity (PSR sort gate)"
experimental_value = "low polyreactivity"

[[record]]
seq_string = "QEQLQERAAWCRRAGSLRLSCAASGNISDYYFMGWYRQAPGKERELVAAIAPGSNTYYADSVKGRFTISRDNAKNTVYLQMNSLKPEDTAVCFCAANSTQYTWFDYWGQGTQVPVSS"
experimental_readout = "polyreactivity (PSR sort gate)"
experimental_value = "low polyreactivity"

[[record]]
seq_string = "QVQLVESGGGLVQAGGSLRLSCAASGRTFYTYAMGWYRQAPGKEREFVAAIDWSGGTTYYADSVKGRFTISRDNAKNTVFLQINSLKPEDTAVYYCAADDSFYRQYYYRAHGDYWGQGYQVTVSS"
experimental_readout = "polyreactivity (PSR sort gate)"
experimental_value = "low polyreactivity"


// polyreactivity (PSR sort gate) lookup, key: QVQLVESGGGLVQAGGSLRLSCAASGSIFLENTMGWYRQAPGKERELVAAITSSGDSTYADSVKGRFTISRDNAKNTVYLQMNSLKPEDTAVYYCAQYTRDIFAVTFYEGEDYWGQGTQVTVSS
low polyreactivity

// polyreactivity (PSR sort gate) lookup, key: QDQLVESGGGLVQAGGSLRLSCAASGFMFSYYAMGWYRQAPGKARELVAAMTSNGGITYYADSVKGRITISRDKAKNTVYLQMNSLKPEDTAVYYCNAYYTSTSYDYWGQGTQVTVSS
high polyreactivity

// polyreactivity (PSR sort gate) lookup, key: QVQLVESGVGLVQAGGSLRISCAASGSTFAAKSMGWYRQAPGKEREWVAVIRRGGSTTYADSVKGRFTISRDNAKNTVYLQMNSLKPEATAVYYCAASLYGKGDYWGQGTQVTVSS
high polyreactivity

// polyreactivity (PSR sort gate) lookup, key: QVQLVESGGGLVQAGGSLRLSCAASGSIIGTYAMGWYRQAPGKERELVAAISSSGGRTYYADSVKGRFTISRDNAKNTVYLQMNSLKPEDTAVYYCNTRPGTVFRAGGDYWGQGTQVTVSS
high polyreactivity

// polyreactivity (PSR sort gate) lookup, key: QVQLVESVGCLVQAGGSLRLSCAASGFNFGYNAMGWYRQAPGKERELVAAITWIGGTTYYADSVKGRFTISRYNAKYTVYLQMNILKPEDTAVDYCNALRRGVRDPYGYWGLGTQVTVSS
high polyreactivity

// polyreactivity (PSR sort gate) lookup, key: QVQLVESGGGLVQAGGSLRLSCAASGSTFSFYTMGWYRQAPGKERELVAAISQSGTSTYYADSVKGRFTISRDNAKNTVFLQMNSLKPEDTAVYYCATVRKFYFHTRWYYYEGGYWGQGTQVTVSS
high polyreactivity

// polyreactivity (PSR sort gate) lookup, key: QVQLVESGGGLVQAGGSLRLSCAASGRIFDYNAMGWYRQAPGKERELVAAINSGGSTYADSVKGRFTISRDNAKNTVYLQMNSLNPEDTAVYYCAKSLGQTDWEYDSWGQGTQVTVSS
low polyreactivity
